Where do the numbers come from? From ChEMBL document CHEMBL5042528.

System Under Test: Adenosine receptor A1 (Homo sapiens, UniProt P30542)
Test Readout: pKi
Answer as the number alone; pKi is minus log10 of concentration in mol/L.

The compound `N#Cc1c(-c2ccccc2)nc(Nc2ccccc2)nc1-c1cccc(O)c1` , when measured on Adenosine receptor A1 (Homo sapiens, UniProt P30542), yielded pKi of 7.74

* * *

Assay Info: in vitro
Measurement Parameters: human, liver microsomes
Description: Stability of the compound in human liver microsome assessed as compound remaining measured after 60 mins by UPLC-MS/MS analysis
Test Readout: remaining at 1 h (%)
Write down the numeric answer in % and omit the unit.

Summary for this molecule, `C[C@]12CC[C@H]3[C@@H](CCC4=CC(=O)CC[C@@]43C)[C@@H]1CC[C@@H]2O` : remaining at 1 h is 3.7

* * *

System Under Test: Adenosine receptor A1 (Homo sapiens)
Sequence (P30542 whole entry): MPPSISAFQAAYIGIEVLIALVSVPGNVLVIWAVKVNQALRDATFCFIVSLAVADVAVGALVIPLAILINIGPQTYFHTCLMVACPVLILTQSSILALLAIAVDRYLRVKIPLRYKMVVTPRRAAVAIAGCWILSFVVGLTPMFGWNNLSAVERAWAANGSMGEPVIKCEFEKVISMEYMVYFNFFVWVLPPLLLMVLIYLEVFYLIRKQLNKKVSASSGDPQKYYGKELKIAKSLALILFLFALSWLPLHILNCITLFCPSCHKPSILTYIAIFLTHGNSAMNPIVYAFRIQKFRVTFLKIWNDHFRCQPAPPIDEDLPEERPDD
Assay Info: Displacement of [3H]DPCPX from A1 adenosine receptor (unknown origin) expressed in CHO cell membrane incubated for 60 mins at room temperature by NXT microplate scintillation counter analysis
Format: cell membranes
Test Readout: Ki (nM)
Write down the numeric answer in nM and omit the unit.

// `Nc1nc(-c2ccccc2)c2c(n1)-c1ccccc1C2=O` : Ki value = 0.1

* * *

System Under Test: Adenosine receptor A2a (Homo sapiens)
Sequence (P29274 whole entry): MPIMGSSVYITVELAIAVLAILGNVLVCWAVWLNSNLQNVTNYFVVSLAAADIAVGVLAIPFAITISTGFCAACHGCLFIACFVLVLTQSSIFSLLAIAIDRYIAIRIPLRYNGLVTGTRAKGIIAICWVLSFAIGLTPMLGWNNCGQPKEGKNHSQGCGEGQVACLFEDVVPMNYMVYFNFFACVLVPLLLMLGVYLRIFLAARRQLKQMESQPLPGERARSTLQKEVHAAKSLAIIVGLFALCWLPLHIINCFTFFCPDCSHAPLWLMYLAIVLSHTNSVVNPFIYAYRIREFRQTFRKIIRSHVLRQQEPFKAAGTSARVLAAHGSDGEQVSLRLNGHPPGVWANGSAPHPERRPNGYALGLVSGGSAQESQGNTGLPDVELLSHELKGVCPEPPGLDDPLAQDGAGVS
Test Readout: pKi
Would you please state pKi, meaning minus log10 of the concentration in mol/L, as a bare number?

`N#Cc1c(-c2ccccc2)nc(Nc2ccccc2)nc1-c1cccc(O)c1` tested on Adenosine receptor A2a (Homo sapiens) gave pKi: 7.15
